Provide the recorded EC50 for the entries that follow.
assay: inhibitors of SNCA 5'UTR-driven reporter translation, confirmation, H4 neuroglioma cells, luminescence (AID 1988); assay type: functional, cell-based
Activity calls are given as the source filed them.

Ask: Please indicate EC50 recorded for `COc1cccc(Nc2ncc(C#N)c(N)n2)c1`
Result: 14.5 µM (active)

Ask: Please indicate EC50 recorded for `CCOC(=O)c1ccc(N2CN(CC)CN=C2S)cc1`
Result: > 120 µM (not active)

Ask: Please indicate EC50 recorded for `C/C(=N\NC(=O)c1cc(C2CC2)nc2ccccc12)c1ccc(O)cc1O`
Result: 5.57 µM (inconclusive)

Ask: Please indicate EC50 recorded for `CC(=O)N(C(C)=O)c1ncnc2c1c(-c1ccc(Cl)cc1)nn2C(C)(C)C`
Result: 25.1 µM (active)

Ask: Please indicate EC50 recorded for `O=C(COc1ncnc2sccc12)N1CCN(C(=O)c2ccco2)CC1`
Result: > 120 µM (not active)

Ask: Please indicate EC50 recorded for `CCOc1cccc(-c2c(C(=O)N/N=C/c3sccc3C)nnn2-c2nonc2N)c1`
Result: 82.2 µM (active)

Ask: Please indicate EC50 recorded for `COCCN(Cc1ccccc1)C(S)=Nc1ccc(Cl)cc1`
Result: 16.8 µM (active)

* * *

biological target: Polyadenylate-binding protein 1 (Homo sapiens, UniProt P11940); assay: PABP1 MLLE–PAM2 interaction inhibitors, dose response, miRNA deadenylation inhibitor project, biochemical, fluorescence polarization, Cy5-PAM2 peptide, secondary (AID 602260); assay type: functional; conditions: read-out: IC50_Mean
Sequence (P11940 whole entry): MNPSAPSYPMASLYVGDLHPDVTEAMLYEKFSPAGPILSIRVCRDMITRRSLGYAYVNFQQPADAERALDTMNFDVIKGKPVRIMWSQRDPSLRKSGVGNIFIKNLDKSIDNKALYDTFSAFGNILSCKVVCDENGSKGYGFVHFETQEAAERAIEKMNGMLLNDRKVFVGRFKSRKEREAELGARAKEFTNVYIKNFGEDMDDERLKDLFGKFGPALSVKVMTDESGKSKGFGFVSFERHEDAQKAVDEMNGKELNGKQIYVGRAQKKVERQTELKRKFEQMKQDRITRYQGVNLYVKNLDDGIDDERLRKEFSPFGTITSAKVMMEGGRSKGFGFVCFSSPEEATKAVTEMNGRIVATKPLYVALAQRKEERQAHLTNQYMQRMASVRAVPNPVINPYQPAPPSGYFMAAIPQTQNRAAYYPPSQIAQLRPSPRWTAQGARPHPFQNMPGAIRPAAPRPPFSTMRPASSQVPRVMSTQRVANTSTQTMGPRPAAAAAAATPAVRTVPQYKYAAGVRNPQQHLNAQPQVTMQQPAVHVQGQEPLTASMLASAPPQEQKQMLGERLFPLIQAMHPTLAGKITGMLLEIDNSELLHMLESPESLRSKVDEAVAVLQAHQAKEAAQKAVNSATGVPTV
Active and inactive are the calls of the source.
Provide the recorded IC50 for the entries that follow.

Ask: Jot down IC50 (Polyadenylate-binding protein 1 (Homo sapiens, UniProt P11940)) of `O=C(/C=C/c1ccco1)NC(=S)Nc1ccc(N2CCCC2)cc1` .
Result: > 66 µM (inactive)

Ask: Jot down IC50 (Polyadenylate-binding protein 1 (Homo sapiens, UniProt P11940)) of `COc1ccc(S(=O)(=O)Nc2ccc(O)c3ccccc23)cc1` .
Result: > 66 µM (inactive)

Ask: Jot down IC50 (Polyadenylate-binding protein 1 (Homo sapiens, UniProt P11940)) of `Cc1csc(=O)n1CCC(=O)OCC(=O)NNC(=O)c1ccc(Cl)cc1` .
Result: > 66 µM (inactive)

Ask: Jot down IC50 (Polyadenylate-binding protein 1 (Homo sapiens, UniProt P11940)) of `CN1CCc2cccc3c2[C@@H]1Cc1ccc(O)c(O)c1-3` .
Result: > 66 µM (inactive)

Ask: Jot down IC50 (Polyadenylate-binding protein 1 (Homo sapiens, UniProt P11940)) of `CCN1C(=O)/C(=C2\SC(=S)N(c3c(C)n(C)n(-c4ccccc4)c3=O)C2=O)c2ccccc21` .
Result: > 66 µM (inactive)

Ask: Jot down IC50 (Polyadenylate-binding protein 1 (Homo sapiens, UniProt P11940)) of `Cc1ccc(S(=O)(=O)Nc2cc(C)c(O)c(Sc3nnc(C)[nH]3)c2)cc1` .
Result: > 66 µM (inactive)

Ask: Jot down IC50 (Polyadenylate-binding protein 1 (Homo sapiens, UniProt P11940)) of `Cc1ccc(/C=C/C(=O)Nc2nn[nH]n2)o1` .
Result: > 66 µM (inactive)

Ask: Jot down IC50 (Polyadenylate-binding protein 1 (Homo sapiens, UniProt P11940)) of `CS(=O)(=O)N(Cc1ccccc1)c1ccc(C(=O)NCCSCc2ccco2)cc1` .
Result: > 66 µM (inactive)

Ask: Jot down IC50 (Polyadenylate-binding protein 1 (Homo sapiens, UniProt P11940)) of `CCOC(=O)CSC1=N/C(=C\c2cc(OC)c(OC)c(OC)c2)C(=O)N1C` .
Result: > 66 µM (inactive)

Ask: Jot down IC50 (Polyadenylate-binding protein 1 (Homo sapiens, UniProt P11940)) of `CCN1C(=O)/C(=C/c2ccc(OC)c(OC)c2)N=C1SCC(=O)NCc1ccco1` .
Result: > 66 µM (inactive)
